- procedureSummary: qHTS assay for small molecules that induce genotoxicity in human embryonic kidney cells expressing luciferase-tagged ATAD5 (AID 651632); further: nearly all actives have a fitted effect of over 15% in size
- conditionSet: HEK293T ATAD5-luciferase induction, 16 h; series mostly up to 83.3 µM
Inconclusive results are not listed. Activity calls are given as the source filed them. The call rests on the fitted dose curve; in most records, active means well fitted activation curve with a large enough effect in the repeat runs; inconclusive means weak or mixed curves; inactive means no such curve, though single readings can be large or run the other way.
Please reply with one of these outcomes: active, inactive

What call does the record list for `CN1CCN(CCCN2c3ccccc3Sc3ccccc32)CC1` ?
inactive

Assay outcome for `Cc1cc(C(=O)NNCc2ccccc2)no1` : what was it?
inactive

Fill in: this test's call for `C[C@H](CSC(=O)c1ccccc1)C(=O)N1C[C@@H](Sc2ccccc2)C[C@H]1C(=O)O` is ___
inactive

What did this assay record as the result for NC(=O)OCC(O)COc1ccc(Cl)cc1 (configuration not stated) ?
inactive

Hey, what did the test say about `CCCOc1ccc2nc(NC(=O)OC)sc2c1` ?
active

Please let me know the test result on file for `COc1cc(C[C@@H]2NCCc3cc(O)c(O)cc32)cc(OC)c1OC` .
inactive

Any idea what this test logged for `CO[C@H]1C[C@@H]2CC[C@@H](C)[C@@](O)(O2)C(=O)C(=O)N2CCCC[C@H]2C(=O)O[C@H]([C@H](C)C[C@@H]2CC[C@@H](OCCO)[C@H](OC)C2)CC(=O)[C@H](C)/C=C(\C)[C@@H](O)[C@@H](OC)C(=O)[C@H](C)C[C@H](C)/C=C/C=C/C=C/1C` ?
inactive

Please indicate how the test categorized `Cc1ncc(COP(=O)(O)O)c(CN)c1O` .
inactive

What was the test verdict on `FCOC(C(F)(F)F)C(F)(F)F` ?
inactive

Test call for this compound, please: C/C1=C2N=C(/C=C3N=C(/C(C)=C4\[N-]C(C(CC(N)=O)C4(C)CCC(=O)NCC(C)OP(=O)([O-])OC4C(CO)OC(n5cnc6cc(C)c(C)cc65)C4O)C4(C)N=C1C(CCC(N)=O)C4(C)CC(N)=O)C(CCC(N)=O)C\3(C)C)C(CCC(N)=O)C/2(C)CC(N)=O.[CH3-].[Co+3] (configuration not stated)
inactive

Please state the recorded outcome for this compound: `C[C@]12CC[C@@H]3c4ccc(OS(=O)(=O)O)cc4CC[C@H]3[C@@H]1CCC2=O`
inactive

State the result this test recorded for `CO[C@H]1C=CO[C@@]2(C)Oc3c(C)c(O)c4c(O)c(c(/C=N/N5CCN(C6CCCC6)CC5)c(O)c4c3C2=O)NC(=O)/C(C)=C\C=C[C@H](C)[C@H](O)[C@@H](C)[C@@H](O)[C@@H](C)[C@H](OC(C)=O)[C@@H]1C` .
inactive

Recorded test call requested for CCC(=O)NCCC1CCc2ccc3c(c21)CCO3 (configuration not stated)
inactive

Entry `NCCCC[C@H](N)C(=O)O` : call = ?
inactive

How did this test come out for `CCSc1ccc2c(c1)N(CCCN1CCN(C)CC1)c1ccccc1S2` ?
inactive

Which outcome was assigned to `CC(C)[C@@H](C)/C=C/[C@@H](C)[C@H]1CC[C@H]2/C(=C/C=C3\C[C@@H](O)CC[C@@H]3C)CCC[C@]12C` in this test?
inactive

Hello, I am checking results. What call was entered for `CC[C@H](CC[C@@H](C)[C@H]1CC[C@H]2[C@@H]3CC=C4C[C@@H](O)CC[C@]4(C)[C@H]3CC[C@]12C)C(C)C` ?
inactive

Name the outcome recorded for `CC(=O)O[C@H]1C[C@@]2(C)[C@@H](C[C@@H](O)[C@H]3[C@@]4(C)CC[C@@H](O)[C@@H](C)[C@@H]4CC[C@@]32C)/C1=C(\CCC=C(C)C)C(=O)O` in the assay.
inactive

Hi team, can someone confirm the assay call for `CC[C@H](C)[C@@H]1NC(=O)[C@H](Cc2ccc(O)cc2)NC(=O)[C@@H](N)CSSC[C@@H](C(=O)N2CCC[C@H]2C(=O)N[C@@H](CC(C)C)C(=O)NCC(N)=O)NC(=O)[C@H](CC(N)=O)NC(=O)[C@H](CCC(N)=O)NC1=O` ?
inactive

Any idea what this test logged for `CCC[C@@H]1C[C@@H](C(=O)N[C@@H]([C@H]2O[C@H](SC)[C@H](O)[C@@H](O)[C@H]2O)[C@H](C)Cl)N(C)C1` ?
inactive

Kindly provide the recorded test outcome for the following compound: `CCCCOC(=O)C(=O)Nc1cccc(-c2nn[nH]n2)c1`
inactive

Name the outcome recorded for `CC(C)(C)C(=O)OCOC(=O)[C@@H]1N2C(=O)[C@@H](N=CN3CCCCCC3)[C@H]2SC1(C)C` in the assay.
inactive

Record request — test call for `CCC(=O)O[C@]1(C(=O)CCl)[C@@H](C)C[C@H]2[C@@H]3C[C@H](F)C4=CC(=O)C=C[C@]4(C)[C@@]3(F)[C@@H](O)C[C@@]21C`
inactive

Called result for `CN1CCc2c(c3ccccc3n2Cc2ccccc2)C1`
inactive

Given `CO[C@H]1C[C@H](O[C@H]2[C@H](C)O[C@@H](O[C@@H]3/C(C)=C/C[C@@H]4C[C@@H](C[C@]5(C=C[C@H](C)[C@@H](C6CCCCC6)O5)O4)OC(=O)[C@@H]4C=C(C)[C@@H](O)[C@H]5OC/C(=C\C=C\[C@@H]3C)[C@]54O)C[C@@H]2OC)O[C@@H](C)[C@@H]1O` , state the outcome it received in this test.
inactive

Outcome? `O=S(O)CNc1ccc(S(=O)(=O)c2ccc(NCS(=O)O)cc2)cc1`
inactive

# lookup: test call for `CCCCC/C=C\CCC(=O)N[C@H]1[C@H](Oc2c3cc4cc2Oc2ccc(cc2Cl)[C@@H](O[C@@H]2O[C@H](CO)[C@@H](O)[C@H](O)[C@H]2NC(C)=O)[C@@H]2NC(=O)[C@H](NC(=O)[C@@H]4NC(=O)[C@H]4NC(=O)[C@@H](Cc5ccc(c(Cl)c5)O3)NC(=O)[C@H](N)c3ccc(O)c(c3)Oc3cc(O)cc4c3)c3ccc(O)c(c3)-c3c(O[C@H]4O[C@H](CO)[C@@H](O)[C@H](O)[C@@H]4O)cc(O)cc3[C@@H](C(=O)O)NC2=O)O[C@H](CO)[C@@H](O)[C@@H]1O`
inactive

* * *

- procedureSummary: qHTS assay to test for compound auto fluorescence at 535 nm (green) in HEK293 cells (AID 720680)
- conditionSet: green autofluorescence 485/535 nm; series mostly up to 46 µM
Calls of active or inactive are those of the source. The call rests on the fitted dose curve; in most records, active means well fitted curve in the direction sought with a large enough effect in the repeat runs; inconclusive means weak or mixed curves; inactive means flat fitted curve, though single readings scatter.
Pick one: active, inactive

// outcome(item) with item = `O=C(O)c1cc2ccccc2c(Cc2c(O)c(C(=O)O)cc3ccccc23)c1O`
inactive

Status in this test for CC1(C)S[C@@H]2[C@H](NC(=O)C(C(=O)Oc3ccc4c(c3)CCC4)c3ccccc3)C(=O)N2[C@H]1C(=O)O (some centres undefined) ?
inactive

Please indicate how the test categorized `Cc1cc2nc3c(=O)[nH]c(=O)nc-3n(C[C@H](O)[C@H](O)[C@H](O)COP(=O)(O)OP(=O)(O)OC[C@H]3O[C@@H](n4cnc5c(N)ncnc54)[C@H](O)[C@@H]3O)c2cc1C` .
active

// return assay outcome for `CCOC(=O)COc1ccc2c(C)c(CCN(CC)CC)c(=O)oc2c1`
inactive

* * *

- procedureSummary: qHTS assay for small molecules that induce genotoxicity in human embryonic kidney cells expressing luciferase-tagged ATAD5 - cell viability (AID 651634); further: nearly all actives have a fitted effect of over 25% in size
- conditionSet: HEK293T ATAD5-luc cells viability, CellTiter-Fluor, 15.5 h; series mostly up to 83.3 µM
Records with an inconclusive call do not appear. Activity calls are given as the source filed them. Calls follow the shape of the full dose curve.
Your reply should match one of these outcome classes. true (1) for active, false (0) for inactive

Recorded test call requested for `C[C@]12CCC(=O)C=C1CC[C@@H]1[C@@H]2[C@@H](O)C[C@@]2(C)[C@H]1CC[C@]2(O)C(=O)COP(=O)(O)O`
false (0)

Record lookup: outcome of this test for `CC(=O)OCC(=O)[C@@]1(O)[C@H](C)C[C@H]2[C@@H]3C[C@H](F)C4=CC(=O)C=C[C@]4(C)[C@H]3[C@@H](O)C[C@@]21C` ?
false (0)

Each compound tested received a call. Report the one for O.O=C([O-])CC([S-])C(=O)[O-].[Au+].[Na+].[Na+] (stereo unspecified) .
false (0)

Could you please tell me the result logged for `CC(=O)O[C@H]1C(=O)[C@@]2(C)[C@H]([C@H](OC(=O)c3ccccc3)[C@]3(O)C[C@H](OC(=O)[C@H](O)[C@@H](NC(=O)c4ccccc4)c4ccccc4)C(C)=C1C3(C)C)[C@]1(OC(C)=O)CO[C@@H]1C[C@@H]2O` in this assay?
true (1)

Outcome logged for `CC(=O)OC[C@H]1O[C@@H](O[C@H]2[C@H](O)[C@@H](OC(=O)c3ccccc3C(=O)O)[C@H](O)O[C@@H]2COC(C)=O)[C@H](O)[C@@H](OC(=O)c2ccccc2C(=O)O)[C@@H]1O` in this assay:
false (0)

Status in this test for CC(O)[C@H]1CC[C@H]2[C@@H]3CC[C@@H]4C[C@@H](O)CC[C@]4(C)[C@H]3CC[C@]12C (stereo partly specified) ?
false (0)
